target: HLA-A*80:01; experiment: IEDB peptide-MHC binding, purified MHC/direct/fluorescence; filed as Kd, often an IC50 or EC50 that approximates it; bounds were set here for any values at or beyond the usual limits of such assays; conditions: source organism: Human immunodeficiency virus 1
pKd: −log10 of the molar value.

entry_sequence	pKd
GTEEIRSLF	≤ 4.70

---

target: HLA-A*03:01; assay: IEDB peptide-MHC binding, purified MHC/competitive/radioactivity; filed as Kd, often an IC50 or EC50 that approximates it; bounds were set here for any values at or beyond the usual limits of such assays; details: source organism: Vaccinia virus WR

entry_sequence	Kd / nM
FASADNHPK	7960
FMRFFQLLR	141
KTNSTVDVR	1880
GMLIYSMWGK	8.57
LLYAAEMVEY	3.93
DILTYNKTSK	2320
ELAELLEMKY	14200
YIRRNMINK	10.6
QQLEDIFMR	2710
EILKINSVKY	6090
ESNIEIMDK	15500

---

biological target: HLA-A*68:02; experiment: IEDB peptide-MHC binding, purified MHC/competitive/radioactivity; filed as Kd, often an IC50 or EC50 that approximates it; bounds were set here for any values at or beyond the usual limits of such assays; conditions: source organism: HIV-1 M:B_ARV2/SF2

entry_sequence	Kd
VIYQYMDDL	≥ 56.2 µM

---

target: HLA-B*15:17; assay: IEDB peptide-MHC binding, purified MHC/competitive/fluorescence; filed as Kd, often an IC50 or EC50 that approximates it; bounds were set here for any values at or beyond the usual limits of such assays; settings: source organism: Giardia lamblia ATCC 50803
attribute_measured: Kd

entry_sequence	attribute_measured	result
NAMGADYYA	Kd	≥ 20 µM
TEDDWITYI	Kd	≥ 20 µM

---

biological target: HLA-A*23:01; assay: IEDB peptide-MHC binding, purified MHC/competitive/fluorescence; filed as Kd, often an IC50 or EC50 that approximates it; bounds were set here for any values at or beyond the usual limits of such assays; settings: source organism: Escherichia coli F11

entry_sequence	Kd
TFYAEFPKK	66.2 nM

---

This section presents sequences with their documented pKd values.
biological target: HLA-A*31:01; assay: IEDB peptide-MHC binding, purified MHC/direct/fluorescence; filed as Kd, often an IC50 or EC50 that approximates it; bounds were set here for any values at or beyond the usual limits of such assays; settings: source organism: Vibrio parahaemolyticus
pKd: −log10 of the molar value.
attribute_measured: pKd

entry_sequence	subject_of_test	comparator	quantitative_readout
RSTLANGWY	HLA-A*31:01	≤	4.70
RTHTLRDAK	HLA-A*31:01	=	6.87

---

target: HLA-A*23:01; assay: IEDB peptide-MHC binding, purified MHC/direct/fluorescence; filed as Kd, often an IC50 or EC50 that approximates it; bounds were set here for any values at or beyond the usual limits of such assays; settings: source organism: Reston ebolavirus
pKd: −log10 of the molar value.
attribute_measured: pKd

entry_sequence	result
RRELSKEKL	≤ 4.70

---

target: HLA-A*02:01; assay: IEDB peptide-MHC binding, purified MHC/competitive/fluorescence; filed as Kd, often an IC50 or EC50 that approximates it; bounds were set here for any values at or beyond the usual limits of such assays; details: source organism: Fowlpox virus
attribute_measured: Kd

entry_sequence	result
VIMWYNYLF	≥ 20 µM

---

target: HLA-A*69:01; test: IEDB peptide-MHC binding, purified MHC/competitive/fluorescence; filed as Kd, often an IC50 or EC50 that approximates it; bounds were set here for any values at or beyond the usual limits of such assays; conditions: source organism: Giardia lamblia ATCC 50803

entry_sequence	Kd
TEDDWITYI	≥ 20 µM

---

target: HLA-B*40:01; test: IEDB peptide-MHC binding, purified MHC/direct/fluorescence; filed as Kd, often an IC50 or EC50 that approximates it; bounds were set here for any values at or beyond the usual limits of such assays; conditions: source organism: Vibrio vulnificus
pKd: −log10 of the molar value.

entry_sequence	pKd
KVMALPIPH	≤ 4.70

---

molecular target: HLA-A*11:01; test: IEDB peptide-MHC binding, purified MHC/competitive/radioactivity; filed as Kd, often an IC50 or EC50 that approximates it; bounds were set here for any values at or beyond the usual limits of such assays; conditions: source organism: Hepatitis C virus (isolate 1)
pKd: −log10 of the molar value.

entry_sequence	subject_of_test	pKd
HPNIEEVAL	HLA-A*11:01	≤ 4.11

---

biological target: HLA-B*58:01; assay: IEDB peptide-MHC binding, purified MHC/direct/fluorescence; filed as Kd, often an IC50 or EC50 that approximates it; bounds were set here for any values at or beyond the usual limits of such assays; conditions: source organism: Influenza A virus (A/swine/Korea/S190/2004(H9N2))
pKd: −log10 of the molar value.

entry_sequence	pKd
ATTHSWIPK	≤ 4.70

---

target: HLA-A*69:01; test: IEDB peptide-MHC binding, purified MHC/direct/fluorescence; filed as Kd, often an IC50 or EC50 that approximates it; bounds were set here for any values at or beyond the usual limits of such assays; settings: source organism: Vibrio parahaemolyticus AQ3810
attribute_measured: Kd

entry_sequence	result
HQFTSNPEV	≥ 20 µM

---

biological target: HLA-A*26:01; experiment: IEDB peptide-MHC binding, purified MHC/competitive/fluorescence; filed as Kd, often an IC50 or EC50 that approximates it; bounds were set here for any values at or beyond the usual limits of such assays; details: source organism: Orthohantavirus puumalaense

entry_sequence	subject_of_test	Kd
IILKALYML	HLA-A*26:01	≥ 20 µM

---

target: HLA-A*01:01; assay: IEDB peptide-MHC binding, purified MHC/direct/fluorescence; filed as Kd, often an IC50 or EC50 that approximates it; bounds were set here for any values at or beyond the usual limits of such assays; details: source organism: SARS-CoV1
attribute_measured: Kd (nM)

entry_sequence	quantitative_readout
GTDSGFAAY	13

---

target: HLA-A*23:01; assay: IEDB peptide-MHC binding, purified MHC/competitive/radioactivity; filed as Kd, often an IC50 or EC50 that approximates it; bounds were set here for any values at or beyond the usual limits of such assays; conditions: source organism: Lymphocytic choriomeningitis virus (strain Armstrong)
pKd: −log10 of the molar value.

entry_sequence	subject_of_test	pKd
SLSLISHVV	HLA-A*23:01	≤ 4.11

---

target: HLA-A*01:01; assay: IEDB peptide-MHC binding, purified MHC/competitive/radioactivity; filed as Kd, often an IC50 or EC50 that approximates it; bounds were set here for any values at or beyond the usual limits of such assays; settings: source organism: Mammarenavirus juninense

entry_sequence	Kd
LYIKDIFTR	≥ 78.1 µM
KTGEKSRCY	≥ 22.5 µM

---

target: HLA-B*40:01; assay: IEDB peptide-MHC binding, purified MHC/direct/fluorescence; filed as Kd, often an IC50 or EC50 that approximates it; bounds were set here for any values at or beyond the usual limits of such assays; conditions: source organism: Cryptosporidium parvum

entry_sequence	Kd
IINAHRIPK	≥ 20 µM

---

biological target: HLA-C*14:02; test: IEDB peptide-MHC binding, purified MHC/direct/fluorescence; filed as Kd, often an IC50 or EC50 that approximates it; bounds were set here for any values at or beyond the usual limits of such assays; settings: source organism: Staphylococcus aureus subsp. aureus N315

entry_sequence	subject_of_test	uom	Kd
RTQAVIYAF	HLA-C*14:02	nM	133

---

molecular target: HLA-A*03:01; assay: IEDB peptide-MHC binding, purified MHC/competitive/fluorescence; filed as Kd, often an IC50 or EC50 that approximates it; bounds were set here for any values at or beyond the usual limits of such assays; conditions: source organism: Yersinia pestis Nepal516
pKd: −log10 of the molar value.

entry_sequence	subject_of_test	comparator	pKd
KTAVVVTRY	HLA-A*03:01	=	6.17
RTLDTLALY	HLA-A*03:01	=	6.88
FTIRDVLAY	HLA-A*03:01	≤	4.70

---

target: HLA-A*02:11; test: IEDB peptide-MHC binding, purified MHC/competitive/fluorescence; filed as Kd, often an IC50 or EC50 that approximates it; bounds were set here for any values at or beyond the usual limits of such assays; details: source organism: Canarypox virus

entry_sequence	Kd
YIIPCILIL	240 nM

---

target: HLA-B*46:01; test: IEDB peptide-MHC binding, purified MHC/direct/fluorescence; filed as Kd, often an IC50 or EC50 that approximates it; bounds were set here for any values at or beyond the usual limits of such assays; details: source organism: Giardia lamblia ATCC 50803
attribute_measured: Kd

entry_sequence	result
RPALVVDTP	≥ 20 µM

---

biological target: HLA-A*24:03; experiment: IEDB peptide-MHC binding, purified MHC/direct/fluorescence; filed as Kd, often an IC50 or EC50 that approximates it; bounds were set here for any values at or beyond the usual limits of such assays; settings: source organism: Orthohantavirus hantanense
pKd: −log10 of the molar value.

entry_sequence	pKd
FFQNETQKY	5.89
